Measured values drawn from patent US20240335462A1 for this set.

# Apparent clearance Cl values compiled below
- Test details: Pharmacokinetic testing in mice
- Assay type: in vivo, male CD-1 mice
- Condition context: mouse, IV 3 mg/kg
Report as a plain number; the unit mL/min/kg is understood.

CNC(=O)c1cnc(NC(=O)C2CC2)cc1Nc1cccc(-c2ncc(S(=O)(=O)C(C)C)cn2)c1OC: 4.7
CNC(=O)c1nnc(NC(=O)C2CC2)cc1Nc1cccc(-c2ncc(S(=N)(=O)C(C)C)cn2)c1OC (single isomer, unassigned) [WX-011A]: 14.1
CNC(=O)c1nnc(NC(=O)C2CC2)cc1Nc1cccc(-c2ccc(P(=O)(C3CC3)C3CC3)cn2)c1OC: 8.5

Let us move to another entry and its Apparent clearance Cl.
Incoming: Endpoint output: Apparent clearance Cl of CNC(=O)c1cnc(NC(=O)C2CC2)cc1Nc1cccc(-c2ccc(S(=O)(=O)C(C)C)cn2)c1OC.Cl [Hydrochloride of WX-020] . Value?
Outgoing: 7.0

###

- Test details: Pharmacokinetic testing in rats
- Format: in vivo, male SD rats
- Condition context: rat, IV 1 mg/kg; read-out: Starting concentration C0
- Method: The objective was to study the pharmacokinetic behavior of the compound of the present disclosure in rats and evaluate the pharmacokinetic characteristics, using male SD rats aged 7 to 9 weeks as test animals. The drug concentrations in plasma at different time points after a single intravenous injection (IV) and oral administration (P0) of the compound were determined using LC/MS/MS. […]
Measurement name: C0 (µM)
Report as a plain number; the unit µM is understood.

Incoming: Endpoint output: C0 of CNC(=O)c1nnc(NC(=O)C2CC2)cc1Nc1cccc(-c2ncc(S(=N)(=O)C(C)C)cn2)c1OC.Cl (single isomer, unassigned) [Hydrochloride of WX-011A] . Value?
Outgoing: 4.54

###

- Test details: Pharmacokinetic testing in mice
- Assay type: in vivo, male CD-1 mice
- Condition context: male, CD-1, plasma; mouse, IV 3 mg/kg; read-out: Starting concentration C0
# C0 values compiled below
Your reply should be a number followed by the unit it is expressed in.

CNC(=O)c1nnc(NC(=O)C2CC2)cc1Nc1cccc(-c2ccc(P(=O)(C3CC3)C3CC3)cn2)c1OC: 9.89 µM

Let us move to another entry and its C0.
Incoming: Endpoint output: C0 of CNC(=O)c1cnc(NC(=O)C2CC2)cc1Nc1cccc(-c2ncc(S(=O)(=O)C(C)C)cn2)c1OC . Value?
Outgoing: 16.3 µM

###

- Test details: Pharmacokinetic testing in mice
- Format: in vivo, male CD-1 mice
- Condition context: male, CD-1, plasma; mouse, IV 1 mg/kg; read-out: Apparent volume of distribution Vd
# Vd values compiled below
Report as a plain number; the unit L/kg is understood.

CNC(=O)c1nnc(NC(=O)C2CC2)cc1Nc1cccc(-c2ccc(S(=N)(=O)C(C)C)cn2)c1OC (centres unmarked) [WX-012]: 2.9

Incoming: Endpoint output: Vd of CNC(=O)c1nnc(NC(=O)C2CC2)cc1Nc1cccc(-c2ncc(S(=N)(=O)C(C)C)cn2)c1OC (centres unmarked) [WX-011] . Value?
Outgoing: 0.7

###

- Test details: Pharmacokinetic testing in mice
- Type: in vivo, male CD-1 mice
- Condition context: mouse, PO 10 mg/kg; read-out: Peak concentration Cmax
- Protocol: The objective was to study the pharmacokinetic behavior of the compound of the present disclosure in mice and evaluate the pharmacokinetic characteristics, using male CD-1 mice aged 7 to 9 weeks as test animals. The drug concentrations in plasma at different time points after a single intravenous injection (IV) and oral administration (PO) of the compound were determined using LC/MS/MS. […]
# Cmax values compiled below
Report as a plain number; the unit µM is understood.

Incoming: Endpoint output: Cmax of CNC(=O)c1nnc(NC(=O)C2CC2)cc1Nc1cccc(-c2ncc(S(=N)(=O)C(C)C)cn2)c1OC (single isomer, unassigned) [WX-011A] . Value?
Outgoing: 16.8

Incoming: Endpoint output: Cmax of CNC(=O)c1cnc(NC(=O)C2CC2)cc1Nc1cccc(-c2ccc(S(=O)(=O)C(C)C)cn2)c1OC.Cl [Hydrochloride of WX-020] . Value?
Outgoing: 15.5
